tested on: Rattus norvegicus; experiment: Maximum fall in blood pressure was evaluated at an oral dose of 0.3 mg/kg in (SHR) spontaneous hypertensive rats; assay type: functional
Test readout: Max fall in blood pressure (%)
Dear colleague, please return just the value in %, with no unit written.

Recorded results for 4 molecules are shown here.
Molecule: CC(=O)Nc1cc2c(cc1[N+](=O)[O-])C(N1CCCC1=O)[C@H](O)C(C)(C)O2 (stereo not given in full)
Test target: Rattus norvegicus
Test readout: Max fall in blood pressure
Value reported: 62
--
Molecule: CC1(C)C=C(N2CCSC2=O)c2cc(C#N)ccc2O1
Test target: Rattus norvegicus
Test readout: Max fall in blood pressure
Value reported: 9
--
Molecule: CC1(C)Oc2ccc(C#N)cc2C(N2CCCCC2=O)[C@@H]1O (stereo not given in full)
Test target: Rattus norvegicus
Test readout: Max fall in blood pressure
Value reported: 49
--
Molecule: CCCCN1CCN(C2c3cc(C#N)ccc3OC(C)(C)[C@H]2O)C(=O)C1 (stereo not given in full)
Test target: Rattus norvegicus
Test readout: Max fall in blood pressure
Value reported: 48

Now for another entry.
Record CC1(C)Oc2ccc(C#N)cc2C(N2CCCC2)[C@@H]1O (stereo not given in full) , field Max fall in blood pressure: 21
